- Procedure details: Solubility Evaluation 2: solubility of dopant compounds in toluene
- Assay type: physicochemical
- Experimental parameters: Table 3
- Experimental: A hundred mg of each compound was placed in a sample pot and the toluene as the solvent was added until the compound was dissolved. The solubility in the toluene was obtained from an amount of the added toluene.
Endpoint name: Solubility (%)
Answer in %, number only, no unit symbol.

Compound	Solubility (%)
CC(C)c1ccc(N(c2ccc(C(C)(C)C)cc2)c2c3ccccc3c(N(c3ccc(C(C)C)cc3)c3ccc(C(C)(C)C)cc3)c3ccccc23)cc1 [EM205]	0.5
Cc1cc(C)cc(N(c2ccc(C(C)C)cc2)c2ccc3ccc4c(N(c5ccc(C(C)C)cc5)c5cc(C)cc(C)c5)ccc5ccc2c3c54)c1 [EM195]	0.5
Cc1ccc(N(c2ccc(C(C)C)cc2)c2c3ccccc3c(N(c3ccc(C)cc3)c3ccc(C(C)C)cc3)c3c2ccc2ccccc23)cc1 [EM210]	1
CC(C)c1ccc(N(c2cccc(-c3ccccc3)c2)c2c3ccccc3c(-c3c4ccccc4c(N(c4ccc(C(C)C)cc4)c4cccc(-c5ccccc5)c4)c4ccccc34)c3ccccc23)cc1 [EM207]	0.5
CC(C)c1ccc(N(c2ccc(C(C)C)cc2)c2ccc3ccc4c(N(c5ccc(C(C)C)cc5)c5ccc(C(C)C)cc5)ccc5ccc2c3c54)cc1 [EM196]	1

Task: What does the data say about its Solubility (%)? Entry: CC(C)c1ccc(N(c2ccc(C(C)C)cc2)c2cc3c4ccccc4c(N(c4ccc(C(C)C)cc4)c4ccc(C(C)C)cc4)cc3c3ccccc23)cc1 [EM212]
Output: 1

Task: # lookup: Solubility (%) of CCC(C)c1ccc(N(c2ccc(-c3ccccc3)cc2)c2ccc(N(c3ccc(-c4ccccc4)cc3)c3ccc(C(C)CC)cc3)c3ccccc23)cc1 (stereo not shown) [EM191]
Output: 1

Task: What value of measured Solubility (%) is listed for CCc1ccc(N(c2ccc(C(C)CC)cc2)c2c3ccccc3c(-c3c4ccccc4c(N(c4ccc(CC)cc4)c4ccc(C(C)CC)cc4)c4ccccc34)c3ccccc23)cc1 (stereo not shown) [EM206] ?
Output: 0.5

Task: Find the recorded Solubility (%) belonging to CC(C)c1ccc(N(c2ccc3ccccc3c2)c2ccc3ccc4c(N(c5ccc(C(C)C)cc5)c5ccc6ccccc6c5)ccc5ccc2c3c54)cc1 [EM194] and report it.
Output: 1

Task: So what's the measured Solubility (%) for this one? c1ccc(-c2cc(N(c3ccc(C4CCCCC4)cc3)c3cc4ccccc4c4ccccc34)c3cc(-c4ccccc4)cc(N(c4ccc(C5CCCCC5)cc4)c4cc5ccccc5c5ccccc45)c3c2)cc1 [EM192]
Output: 1

Task: Item under review: CC(C)c1ccc(N(c2ccc(C(C)(C)C)cc2)c2ccc3ccc4c(N(c5ccc(C(C)C)cc5)c5ccc(C(C)(C)C)cc5)ccc5ccc2c3c54)cc1 [EM197] . Reported Solubility (%)?
Output: 1

Task: # query: Solubility (%) of entry Cc1ccc(N(c2ccc(C(C)C)cc2)c2ccc3ccc4c(N(c5ccc(C)cc5)c5ccc(C(C)C)cc5)ccc5ccc2c3c54)cc1 [EM193]
Output: 0.5

Task: What does the record list as Solubility (%) for Cc1ccc(N(c2ccc(C(C)C)cc2)c2c3ccccc3c(N(c3ccc(C(C)C)cc3)c3ccc(C(C)C)cc3)c3c2ccc2ccccc23)cc1 [EM211] ?
Output: 1

====

- Procedure details: Solubility Evaluation 1: solubility of host compounds in toluene
- Type: physicochemical
- Experimental parameters: in toluene; 100 mg compound, toluene added until dissolved
Endpoint name: Solubility (%)
# unit: % | format: bare number

Use the examples below as a reference point.
> print(dat)
                                        smi  readout.value
1  c1ccc2cc(-c3ccc4cc(-c5c6ccccc6c(-c6ccc(-c7cccc8ccccc78)cc6)c6ccccc56)ccc4c3)ccc2c1            2.0
2  c1cc(-c2ccc(-c3cccc4ccccc34)cc2)cc(-c2c3ccccc3c(-c3ccc(-c4cccc5ccccc45)cc3)c3ccccc23)c1            2.0

Kindly review the next molecule as well.
Task: Recorded Solubility (%) of c1ccc2cc(-c3ccc(-c4c5ccccc5c(-c5ccc(-c6cccc7ccccc67)cc5)c5ccccc45)cc3)ccc2c1 , please.
Output: 2.0
